These measurements were taken from PubChem BioAssay.

Biological target: Concanavalin-A (Canavalia ensiformis) (UniProt P02866)
Sequence (P02866 whole entry, looked up): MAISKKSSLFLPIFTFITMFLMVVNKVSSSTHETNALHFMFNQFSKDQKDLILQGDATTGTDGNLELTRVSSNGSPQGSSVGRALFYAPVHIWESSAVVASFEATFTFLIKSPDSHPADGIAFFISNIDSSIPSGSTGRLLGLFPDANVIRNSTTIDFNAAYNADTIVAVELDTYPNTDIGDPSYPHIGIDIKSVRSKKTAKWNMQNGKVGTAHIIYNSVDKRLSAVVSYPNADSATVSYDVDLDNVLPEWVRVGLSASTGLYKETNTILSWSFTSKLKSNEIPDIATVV
Assay: ConA small-molecule binders, primary screen, artefact control for SMM control protein annotation, biochemical, small-molecule microarray, Alexa647 label, 635 nm (AID 1127);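 note: z combines 667 nm emission intensity with signal-to-noise across three replicate slides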
Conditions: ConA-A647 binding fluorescence, higher = more signal
OUTCOME MEASURE: composite z-score
Answer as a number with no unit attached.

According to the records, this molecule C[C@@H]1CC[C@H]2C(=O)OC(Cc3ccccc3)CN2[C@H]1c1ccc(Br)cc1 (some centres undefined) displays composite z-score of 0.494

According to the records, this molecule "CC(C)=CCCC(C)=CCON=C1C[C@@H](O)[C@@H](O)[C@@H]2[C@@H]3C(=O)N([C@@H](C)c4ccccc4)C(=O)[C@@H]3CC[C@@H]12" displays composite z-score of 0.6

According to the records, this molecule "CCc1cc2c(nc1CC)CCN(CCC(C)=NOC[C@@H](C)[C@H](OCc1ccccc1)C(C)C)C2" displays composite z-score of -1.12

According to the records, this molecule "COc1cccc([C@H]2Oc3ccc(OC)cc3C(=NO[C@@H](C)c3cc(-c4c(C)cc(C)cc4C)no3)[C@@H]2O)c1" displays composite z-score of -1.57
